Reference for the values: ChEMBL document CHEMBL5625223

- testedTarget: 5-hydroxytryptamine receptor 2A (Homo sapiens, UniProt P28223)
- Sequence (P28223 whole entry): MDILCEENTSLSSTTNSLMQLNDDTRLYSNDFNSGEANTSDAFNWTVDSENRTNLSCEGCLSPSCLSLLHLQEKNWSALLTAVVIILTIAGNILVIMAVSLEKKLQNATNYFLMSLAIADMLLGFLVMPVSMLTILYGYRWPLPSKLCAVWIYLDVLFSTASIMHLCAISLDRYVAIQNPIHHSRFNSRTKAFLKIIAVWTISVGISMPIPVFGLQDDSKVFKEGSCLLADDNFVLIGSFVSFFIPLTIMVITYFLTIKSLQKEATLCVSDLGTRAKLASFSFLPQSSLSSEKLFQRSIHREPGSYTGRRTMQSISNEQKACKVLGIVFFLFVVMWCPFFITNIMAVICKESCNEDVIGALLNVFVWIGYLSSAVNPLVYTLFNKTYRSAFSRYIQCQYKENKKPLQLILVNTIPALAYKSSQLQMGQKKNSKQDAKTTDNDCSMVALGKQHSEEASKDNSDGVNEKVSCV
- experiment: Binding affinity to 5HT2A receptor (unknown origin) at 10 uM relative to control
measurementName: Activity (%)
Note: unit % is implicit; provide only the numeric part.

input: Determine reported Activity for `OC[C@@]12C[C@@H]1[C@@H](n1cnc3c(NC(C4CCC4)C4CCC4)ncnc31)[C@H](O)[C@@H]2O` ; test system: 5-hydroxytryptamine receptor 2A (Homo sapiens, UniProt P28223).
output: 18

input: Write down measured Activity (5-hydroxytryptamine receptor 2A (Homo sapiens, UniProt P28223)) for this compound. `OC[C@@]12C[C@@H]1[C@@H](n1cnc3c(NC(C4CCC4)C4CCC4)nc(I)nc31)[C@H](O)[C@@H]2O`
output: 16

input: Report measured Activity on 5-hydroxytryptamine receptor 2A (Homo sapiens, UniProt P28223); entry: `OC[C@@]12C[C@@H]1[C@@H](n1cnc3c(NC(C4CCC4)C4CCC4)nc(Cl)nc31)[C@H](O)[C@@H]2O`
output: 8

====

Task for the reader: assign each of the following compounds its reported Activity.
- testedTarget: 5-hydroxytryptamine receptor 2A (Homo sapiens, UniProt P28223)
- experiment: Displacement of [3H]ketanserin from human 5-HT2A receptor expressed in HEK293 cells at 10 uM incubated for 1 hr relative to control
- Type: cell-based
Unit % implied. Number only.

input: Annotate the compound `Ic1nc(N[C@H](C2CCC2)C2CC2)c2nc[nH]c2n1` with its measured Activity.
output: -10

input: Quote Activity reported for `CSC[C@@]12C[C@@H]1[C@@H](n1cnc3c(NC(C4CC4)C4CC4)nc(I)nc31)[C@H](O)[C@@H]2O` please.
output: 16

input: Answer with the recorded Activity of `O[C@H]1[C@H](n2cnc3c(NC(C4CCCC4)C4CCCC4)nc(Cl)nc32)[C@H]2C[C@@]2(CF)[C@H]1O` only.
output: 36

input: Given `OC[C@@]12C[C@@H]1[C@@H](n1cnc3c(NC(C4CC4)C4CC4)nc(I)nc31)[C@H](O)[C@@H]2O` , respond with its Activity.
output: 35

input: Give the measured Activity for `NC[C@H]1O[C@@H](n2cnc3c(N[C@H](C4CCC4)C4CC4)nc(I)nc32)[C@H](O)[C@@H]1O`
output: 9

input: Given the compound `OC[C@@]12C[C@@H]1[C@@H](n1cnc3c(NC(C4CCCC4)C4CCCC4)nc(Cl)nc31)[C@H](O)[C@@H]2O` , write its reported Activity.
output: 1

input: Note Activity for the compound shown: `CSC[C@@]12C[C@@H]1[C@@H](n1cnc3c(NC(C4CC4)C4CC4)nc(Cl)nc31)[C@H](O)[C@@H]2O`
output: 19

input: Name the recorded Activity of the item COCCN(CCOC)C(=O)[C@]12C[C@H]1[C@H](n1cnc3c(NC(C4CC4)C4CC4)nc(Cl)nc31)[C@@H](O)[C@H]2O (single isomer, unassigned) in your answer.
output: 0

====

- testedTarget: 5-hydroxytryptamine receptor 2B (Homo sapiens, UniProt P41595)
- Sequence (P41595 whole entry): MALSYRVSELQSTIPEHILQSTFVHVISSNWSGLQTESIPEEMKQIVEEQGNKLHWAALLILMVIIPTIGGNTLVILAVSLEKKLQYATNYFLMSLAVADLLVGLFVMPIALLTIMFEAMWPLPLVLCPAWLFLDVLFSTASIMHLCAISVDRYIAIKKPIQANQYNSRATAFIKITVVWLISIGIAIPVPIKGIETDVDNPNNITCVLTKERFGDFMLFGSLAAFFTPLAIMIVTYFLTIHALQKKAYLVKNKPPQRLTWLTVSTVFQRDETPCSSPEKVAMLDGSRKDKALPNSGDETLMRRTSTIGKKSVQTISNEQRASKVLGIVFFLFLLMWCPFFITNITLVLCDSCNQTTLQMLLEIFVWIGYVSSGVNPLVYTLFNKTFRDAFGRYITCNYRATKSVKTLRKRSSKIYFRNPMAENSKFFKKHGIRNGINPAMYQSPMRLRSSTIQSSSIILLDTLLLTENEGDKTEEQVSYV
- experiment: Binding affinity to 5HT2B receptor (unknown origin) assessed as inhibition constant
measurementName: pKi
Formally, pKi is defined as -log10 of the concentration c, with c in mol/L.

input: Check the records and state pKi for `CCOC(=O)[C@@]12C[C@@H]1[C@@H](n1cnc3c(NC(C4CCC4)C4CCC4)nc(Cl)nc31)[C@H](O)[C@@H]2O`
output: 6.87

input: Recall and state the measured pKi for `CNC(=O)[C@]12C[C@@H]1[C@@H](n1cnc3c(NC4CCCC4)nc(Cl)nc31)[C@H](O)[C@@H]2O` .
output: 7.11

input: Input `O[C@H]1[C@H](n2cnc3c(NC(C4CCC4)C4CCC4)nc(Cl)nc32)[C@H]2C[C@@]2(CSc2ccccc2F)[C@H]1O` , output reported pKi.
output: 6.22

input: For the compound `O[C@@H]1[C@H](O)[C@@H]2C[C@@H]2[C@H]1n1ccc2c(NC(C3CC3)C3CC3)nc(I)nc21` , give its measured pKi value.
output: 5.89

input: Name the recorded pKi of the compound listed here: `O[C@H]1[C@H](n2cnc3c(NC(C4CCC4)C4CCC4)ncnc32)[C@H]2C[C@@]2(CCl)[C@H]1O`
output: 5.96

input: Tell me measured pKi for `OC[C@@]12C[C@@H]1[C@@H](n1cnc3c(NC(C4CCC4)C4CCC4)ncnc31)[C@H](O)[C@@H]2O` please.
output: 6.73
